assay info: Open-label randomized pharmacokinetic drug-drug interaction study: plasma PK of Compound A alone or with phenytoin
Format: in vivo, human
assay setup: human, plasma, oral, 100 mg, Compound A 100 mg alone, truncated sampling; read-out: Tmax
metric name: Tmax (h)
Write the number in h without appending the unit.

Query block: Requested field: Tmax. Item: "Cc1cc(S(=O)(=O)Nc2cscn2)c(F)cc1N(C)[C@H]1CCN(Cc2ccccc2)C1"
Result block: 1

====

assay info: Urinary excretion and renal clearance of Compound A in the pharmacokinetic study
Assay type: in vivo, human
assay setup: human, urine, oral; both treatments: presence (Day 12) or absence (Day 1) of phenytoin
metric name: CL renal

Query block: Returns the measured CL renal for the input compound. Input: Cc1cc(S(=O)(=O)Nc2cscn2)c(F)cc1N(C)[C@H]1CCN(Cc2ccccc2)C1 [Compound A]
Result block: 0.05 to 0.0667 mL/min
